Tested on: SK-BR-3
assay.details: normalised response (% of control), CellTiter-Glo; higher = more viable cells (100 = DMSO, 0 = benzethonium chloride kill control)
experimental.context: incubation time: 72 h
Here, each record is paired with measured normalised response data.
measured.quantity: normalised response (%)

>  <molecule>
CC[C@@]1(O)C(=O)OCc2c1cc1n(c2=O)Cc2cc3c(CN(C)C)c(O)ccc3nc2-1 [Topotecan] (1 nM)

>  <experimental.result>
99.2

$$$$
>  <molecule>
CCN(CC)CCNC(=O)c1c(C)[nH]c(/C=C2\C(=O)Nc3ccc(F)cc32)c1C [Sunitinib] (1 nM)

>  <experimental.result>
111

$$$$
>  <molecule>
O=S(=O)(c1cccc2cnccc12)N1CCCNCC1 [Fasudil] (5 nM)

>  <experimental.result>
101

$$$$
>  <molecule>
O=C(CCBr)N1CCN(C(=O)CCBr)CC1 [Pipobroman] (1 nM)

>  <experimental.result>
115

$$$$
>  <molecule>
CO[C@@H](C(=O)N1Cc2[nH]nc(NC(=O)c3ccc(N4CCN(C)CC4)cc3)c2C1)c1ccccc1 [Danusertib] (1 nM)

>  <experimental.result>
90.8

$$$$
>  <molecule>
CNC(=O)c1cc(Oc2ccc(NC(=O)Nc3ccc(Cl)c(C(F)(F)F)c3)cc2)ccn1 [Sorafenib] (100 nM)

>  <experimental.result>
104

$$$$
>  <molecule>
Cc1c(Cn2c(C)nc3c(C(=O)O)cc(N4CCOCC4)cc32)cccc1C(F)(F)F (10 nM)

>  <experimental.result>
100

$$$$
>  <molecule>
O=C(CCBr)N1CCN(C(=O)CCBr)CC1 [Pipobroman] (10 nM)

>  <experimental.result>
107

$$$$
